test: Toxicity liver stage against HepG2, at 10uM; assay type: cell-based; set-up: test concentration 10 uM, cell line HepG2-A16-CD81EGFP; details: human, HepG2-A16-CD81EGFP cells; read-out: INHIBITION
Readout: cytotoxicity at 10 µM (%)
Entry rule: numbers only, all in %.

Ask | So what's the measured cytotoxicity at 10 µM for this one? `COc1c(CNCc2cccnc2N2CCCCC2)c(C)nn1C`
Reply | -151

Ask | Now consider `O=C(c1cccnc1-n1cncn1)N1CCC(Nc2ccccc2)CC1` and answer again.
Reply | 7.1

Ask | Now consider `COCCN1C[C@@H](C)[C@@]2(COCCN(C(=O)c3ccccn3)C2)C1` and answer again.
Reply | 9.58

Ask | Now consider COc1cc(OC)cc(C(=O)N2CCOCC2c2[nH]ncc2C)c1 (stereo not drawn) and answer again.
Reply | 7.83

Ask | Now consider `CN(CCCNC(=O)CN1CCS(=O)(=O)CC1)c1ccccc1` and answer again.
Reply | -4.65

Ask | Now consider Cn1cc(C(=O)N2CCCCC2CCc2ccccc2)cn1 (stereo not drawn) and answer again.
Reply | -7.45

Ask | Now consider `O=C(c1ccc2cccc(F)c2n1)N1CCN(CCn2cccc2)CC1` and answer again.
Reply | 13.5

Ask | Now consider `CN1C[C@H](O)[C@]2(CCN(Cc3ccc(OC(F)(F)F)cc3)C2)S1(=O)=O` and answer again.
Reply | -5.57

Ask | Now consider c1coc(-c2nnc(CN3CCCC(CN4CCCCCC4)C3)o2)c1 (stereo not drawn) and answer again.
Reply | -10.5

Ask | Now consider `CCc1nnc2n1CCN(Cc1ncc(-c3ccccc3)o1)C2` and answer again.
Reply | -3.98

Ask | Now consider CCc1nnc(CNCC2CCN(CC(O)c3ccccc3)CC2)o1 (stereo not drawn) and answer again.
Reply | -1.49

Ask | Now consider CN(C)C(CNC(=O)c1nc(N2CCOCC2)ncc1Cl)c1cccs1 (stereo not drawn) and answer again.
Reply | 8.26

Ask | Now consider NC(=O)C(CNC(=O)CCc1ccccc1)Cc1ccc(F)cc1 (stereo not drawn) and answer again.
Reply | 6.62

Ask | Now consider Cc1nnc(SCC(=O)N2CCC3(CC2)c2ccccc2CC3O)o1 (stereo not drawn) and answer again.
Reply | -20.7

Ask | Now consider `CC(=O)N1CCC(N2CCN3C(=O)N(Cc4ccccn4)C[C@H]3C2)CC1` and answer again.
Reply | 2.26

Ask | Now consider `Cc1ocnc1C(=O)N(C)[C@@H]1CCC[C@@H](N2CCCC2)[C@@H]1O` and answer again.
Reply | -3.7

Ask | Now consider `COC(=O)c1ccc(Cl)c(NS(=O)(=O)c2cnn(C)c2)c1` and answer again.
Reply | 0.214

Ask | Now consider `CCN1CCN(C(=O)NCCOc2ccc3c(c2)OCO3)CC1` and answer again.
Reply | -4.59

Ask | Now consider Cn1cc(C(C)(O)CNC(=O)c2cc(Br)cn2C)cn1 (stereo not drawn) and answer again.
Reply | -51.1

Ask | Now consider `CCN(Cc1ccccc1C)S(C)(=O)=O` and answer again.
Reply | 9.23

Ask | Now consider `COc1cc(S(=O)(=O)N2CCc3ccccc32)cc(C(=O)O)c1OC` and answer again.
Reply | -7.54

Ask | Now consider CN(CC(=O)N1CCCC1c1noc(C2CC2)n1)C1CC1 (stereo not drawn) and answer again.
Reply | 9.62

Ask | Now consider Cc1ccsc1C(=O)N1CCCC(c2[nH]ncc2S(C)(=O)=O)C1 (stereo not drawn) and answer again.
Reply | -5.39

Ask | Now consider `Cc1cccc(C2(O)CCN(C(=O)c3ccc(N(C)C)cc3)CC2)c1C` and answer again.
Reply | -2.96

Ask | Now consider `O=C([C@@H]1COC[C@H]2CN(C3CCOCC3)C[C@H]21)N1CCCCO1` and answer again.
Reply | -6.28

Ask | Now consider `CCNC(=O)NCCCn1nc2ccccn2c1=O` and answer again.
Reply | -18.2

Ask | Now consider `CCC(=O)Nc1ccc2c(c1)C1(CCOCC1)CN2CCF` and answer again.
Reply | -87.4

Ask | Now consider `CCOC1CCN(C(=O)c2cc(-c3ccc(Cl)cc3)on2)CC1` and answer again.
Reply | -5.08
